Measured Drug uptake, listed per entry for reference.
Tested on: Thyroid gland
Experiment: Biodistribution in ICR mouse thyroid at 5 to 10 uCi, iv after 1 hr
Assay type: ADME, organism-based
Details: in vivo
Response body: numeric value in % ID/g, unit text excluded.

CN(C)c1ccc(/C=C/c2cnc(OCCO)c([125I])c2)cc1    59.1
CN(C)c1ccc(/C=C/c2cnc(OCCOCCOCCF)c([125I])c2)cc1    24.2
CNc1ccc(/C=C/c2cnc(OCCOCCOCCF)c([125I])c2)cc1    38.1
OCCOc1ncc(/C=C/c2ccc(O)cc2)cc1[125I]    13

Item: CNc1ccc(/C=C/c2cnc(OCCO)c([125I])c2)cc1 | Drug uptake: 36.7
